Taken from the supplement of paper PMC7877785.

Below is a list of entries, each paired with its recorded self-splicing fitness (ln) value.
assay explanation: self-splicing fitness, log relative to wild type (ln ratio); higher = more splicing; Tetrahymena group I intron in knt gene, E. coli kanamycin selection, DiMSum; sequences stand for … in CUCUCU…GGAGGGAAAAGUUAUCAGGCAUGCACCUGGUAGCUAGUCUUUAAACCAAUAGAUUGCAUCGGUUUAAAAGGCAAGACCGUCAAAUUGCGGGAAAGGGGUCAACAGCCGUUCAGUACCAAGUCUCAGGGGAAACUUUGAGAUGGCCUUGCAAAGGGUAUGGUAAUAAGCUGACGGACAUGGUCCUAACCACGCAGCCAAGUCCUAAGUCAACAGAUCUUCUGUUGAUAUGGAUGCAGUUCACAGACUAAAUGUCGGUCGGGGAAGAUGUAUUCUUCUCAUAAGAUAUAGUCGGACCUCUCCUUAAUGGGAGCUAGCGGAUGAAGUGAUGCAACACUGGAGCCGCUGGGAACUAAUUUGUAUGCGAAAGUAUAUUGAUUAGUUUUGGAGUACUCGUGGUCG;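 note: selection with 25 µg/mL kanamycin versus none on LB agar overnight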
condition set: 30 °C
I'd appreciate a reply containing only the number, no unit.

- ordered residues: "UAAUAGCAAUAUUACGACAA"
  experimental value: -2.23
- ordered residues: "CCCUAGCAAUAUUACGCUAC"
  experimental value: -2.96
- ordered residues: "ACAAAGCAAUAUUACGCGGG"
  experimental value: -2.47
- ordered residues: "ACCCAGCAAUAUUACGAUUU"
  experimental value: -0.881
- ordered residues: "CGUGAGCAAUAUUACGGGCU"
  experimental value: -1.5
- ordered residues: "CUUCAGCAAUAUUACGAACC"
  experimental value: -1.67
- ordered residues: "GAAGAGCAAUAUUACGCACG"
  experimental value: -2.22
- ordered residues: "GUAUAGCAAUAUUACGGCCU"
  experimental value: -1.29

Query: Give me measured self-splicing fitness (ln), please, for this sequence: CAAAAGCAAUAUUACGGCAG
Result: 0.126

Query: Give me measured self-splicing fitness (ln), please, for this sequence: AAGUAGCAAUAUUACGAAGU
Result: -3.02

Query: Give me measured self-splicing fitness (ln), please, for this sequence: GUGAAGCAAUAUUACGAUUU
Result: -0.586

Query: Give me measured self-splicing fitness (ln), please, for this sequence: AAUCAGCAAUAUUACGGGAU
Result: -1.45

Query: Give me measured self-splicing fitness (ln), please, for this sequence: UGCAAGCAAUAUUACGUAUU
Result: -3.36

Query: Give me measured self-splicing fitness (ln), please, for this sequence: UCAUAGCAAUAUUACGGUCC
Result: -3.53

Query: Give me measured self-splicing fitness (ln), please, for this sequence: AUCUAGCAAUAUUACGUUAG
Result: -3.26

Query: Give me measured self-splicing fitness (ln), please, for this sequence: GCGAAGCAAUAUUACGAUAG
Result: -2.35

----------
assay explanation: self-splicing fitness, log relative to wild type (ln ratio); higher = more splicing; Tetrahymena group I intron in knt gene, E. coli kanamycin selection, DiMSum; sequences stand for … in CUCUCU…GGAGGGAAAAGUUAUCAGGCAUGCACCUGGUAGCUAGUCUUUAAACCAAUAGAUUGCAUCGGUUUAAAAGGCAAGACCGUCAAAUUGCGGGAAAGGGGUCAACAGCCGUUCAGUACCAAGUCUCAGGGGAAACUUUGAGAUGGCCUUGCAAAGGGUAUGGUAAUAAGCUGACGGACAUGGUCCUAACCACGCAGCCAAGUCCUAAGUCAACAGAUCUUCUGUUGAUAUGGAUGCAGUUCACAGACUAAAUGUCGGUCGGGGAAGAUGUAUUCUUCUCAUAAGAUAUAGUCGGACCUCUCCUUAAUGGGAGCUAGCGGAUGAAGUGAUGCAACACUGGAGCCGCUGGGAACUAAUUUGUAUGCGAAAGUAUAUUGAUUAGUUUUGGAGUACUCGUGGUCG
condition set: 37 °C
// thresholds for self-splicing fitness (ln) classes: class A: < -2; class B: ≥ -2 and < -1; class C: ≥ -1

- ordered residues: "CGGCAGCAAUAUUACGCGAG"
  answer label: "class A"
- ordered residues: "CGAGAGCAAUAUUACGUACA"
  answer label: "class B"
- ordered residues: "AUUGAGCAAUAUUACGCGUG"
  answer label: "class A"
- ordered residues: "GGUGAGCAAUAUUACGUUCU"
  answer label: "class B"
- ordered residues: "CCGGAGCAAUAUUACGUUGA"
  answer label: "class A"
- ordered residues: "CCACAGCAAUAUUACGCGGG"
  answer label: "class A"
- ordered residues: "ACCCAGCAAUAUUACGAGGA"
  answer label: "class B"
- ordered residues: "AAAAAGCAAUAUUACGAGAC"
  answer label: "class A"
- ordered residues: "GAACAGCAAUAUUACGAUGA"
  answer label: "class C"
- ordered residues: "ACGCAGCAAUAUUACGAGGA"
  answer label: "class A"

Query: // bin(item) where item = UCUGAGCAAUAUUACGACGU
Result: class C

Query: // bin(item) where item = GGGGAGCAAUAUUACGACUC
Result: class C

Query: // bin(item) where item = UGAUAGCAAUAUUACGUAGU
Result: class A

Query: // bin(item) where item = UCAGAGCAAUAUUACGUAAU
Result: class B

----------
assay explanation: self-splicing fitness, log relative to wild type (ln ratio); higher = more splicing; Tetrahymena group I intron in knt gene, E. coli kanamycin selection, DiMSum; sequences stand for … in CUCUCU…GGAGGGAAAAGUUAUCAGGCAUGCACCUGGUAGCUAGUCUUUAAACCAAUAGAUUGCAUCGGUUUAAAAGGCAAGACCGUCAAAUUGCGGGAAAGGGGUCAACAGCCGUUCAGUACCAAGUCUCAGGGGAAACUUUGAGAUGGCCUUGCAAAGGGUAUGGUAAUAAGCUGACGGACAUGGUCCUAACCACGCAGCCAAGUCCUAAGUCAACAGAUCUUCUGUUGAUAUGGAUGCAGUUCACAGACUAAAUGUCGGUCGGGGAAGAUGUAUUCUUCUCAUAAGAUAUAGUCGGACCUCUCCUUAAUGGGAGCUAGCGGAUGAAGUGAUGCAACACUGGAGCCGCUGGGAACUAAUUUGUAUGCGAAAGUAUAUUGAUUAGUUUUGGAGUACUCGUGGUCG
condition set: 30 °C
Below is a list of entries, each paired with its recorded self-splicing fitness (ln) value.
I'd appreciate a reply containing only the number, no unit.

Take a look at these entries with their results.
- ordered residues: "UCCUAGCAAUAUUACGGACG"
  quantity: "self-splicing fitness (ln)"
  experimental value: -3.92
- ordered residues: "UGCCAGCAAUAUUACGUAGU"
  quantity: "self-splicing fitness (ln)"
  experimental value: -3.91
- ordered residues: "AAUUAGCAAUAUUACGGAGU"
  quantity: "self-splicing fitness (ln)"
  experimental value: -2.69

Query: Give me measured self-splicing fitness (ln), please, for this sequence: GUCUAGCAAUAUUACGAUCU
Result: -1.57

Query: Give me measured self-splicing fitness (ln), please, for this sequence: GCGUAGCAAUAUUACGGUCA
Result: -0.597

Query: Give me measured self-splicing fitness (ln), please, for this sequence: ACUCAGCAAUAUUACGUAUU
Result: -2.01

Query: Give me measured self-splicing fitness (ln), please, for this sequence: UUCAAGCAAUAUUACGGGGG
Result: -3.34

Query: Give me measured self-splicing fitness (ln), please, for this sequence: GAUAAGCAAUAUUACGGGAC
Result: -2.82

Query: Give me measured self-splicing fitness (ln), please, for this sequence: CGCGAGCAAUAUUACGAAGG
Result: -2.81

Query: Give me measured self-splicing fitness (ln), please, for this sequence: AAACAGCAAUAUUACGGAGC
Result: -3.7

Query: Give me measured self-splicing fitness (ln), please, for this sequence: CUACAGCAAUAUUACGUGUG
Result: -1.63

Query: Give me measured self-splicing fitness (ln), please, for this sequence: AUCGAGCAAUAUUACGCGGU
Result: -2.9

Query: Give me measured self-splicing fitness (ln), please, for this sequence: GCAUAGCAAUAUUACGGCAC
Result: -1.15

Query: Give me measured self-splicing fitness (ln), please, for this sequence: GGGCAGCAAUAUUACGGGUG
Result: -3.07

Query: Give me measured self-splicing fitness (ln), please, for this sequence: GCUUAGCAAUAUUACGGGAU
Result: -1.56

Query: Give me measured self-splicing fitness (ln), please, for this sequence: GGAAAGCAAUAUUACGGAAU
Result: -2.55

----------
assay explanation: self-splicing fitness, log relative to wild type (ln ratio); higher = more splicing; Tetrahymena group I intron in knt gene, E. coli kanamycin selection, DiMSum; sequences stand for … in CUCUCU…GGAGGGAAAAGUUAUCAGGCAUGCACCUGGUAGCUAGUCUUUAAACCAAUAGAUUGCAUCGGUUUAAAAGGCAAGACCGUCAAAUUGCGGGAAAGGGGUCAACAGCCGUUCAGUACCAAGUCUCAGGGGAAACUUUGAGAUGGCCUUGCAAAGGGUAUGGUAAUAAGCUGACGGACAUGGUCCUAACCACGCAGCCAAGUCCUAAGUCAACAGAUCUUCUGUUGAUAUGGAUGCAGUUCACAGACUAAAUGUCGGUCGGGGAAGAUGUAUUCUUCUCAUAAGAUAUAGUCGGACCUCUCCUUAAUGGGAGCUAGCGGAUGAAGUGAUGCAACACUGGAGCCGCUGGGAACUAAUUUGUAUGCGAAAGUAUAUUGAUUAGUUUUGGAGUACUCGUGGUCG
condition set: 30 °C
Below is a list of entries, each paired with its recorded self-splicing fitness (ln) value.

Take a look at these entries with their results.
- ordered residues: "AUAGAGCAAUAUUACGGGGU"
  experimental value: -3.46
- ordered residues: "GAUAAGCAAUAUUACGGGAU"
  experimental value: -2.39
- ordered residues: "UGGGAGCAAUAUUACGGCGC"
  experimental value: -1.12
- ordered residues: "CCAAAGCAAUAUUACGUGCG"
  experimental value: -0.979
- ordered residues: "GACCAGCAAUAUUACGGUAA"
  experimental value: 0.0402
- ordered residues: "UUCCAGCAAUAUUACGUAUU"
  experimental value: -3.21
- ordered residues: "CAACAGCAAUAUUACGGAUA"
  experimental value: -3.38
- ordered residues: "CGUGAGCAAUAUUACGCACC"
  experimental value: -1.07
- ordered residues: "GAACAGCAAUAUUACGUCUC"
  experimental value: -2.17
- ordered residues: "GUUAAGCAAUAUUACGUUAC"
  experimental value: -2.36

Query: Give me measured self-splicing fitness (ln), please, for this sequence: CUACAGCAAUAUUACGUGAA
Result: -4.26

Query: Give me measured self-splicing fitness (ln), please, for this sequence: ACCAAGCAAUAUUACGACGA
Result: -1.11

Query: Give me measured self-splicing fitness (ln), please, for this sequence: AUACAGCAAUAUUACGUGCG
Result: -0.886

Query: Give me measured self-splicing fitness (ln), please, for this sequence: CCCAAGCAAUAUUACGCGGG
Result: -3.8

Query: Give me measured self-splicing fitness (ln), please, for this sequence: CGACAGCAAUAUUACGCGCA
Result: -1.17

Query: Give me measured self-splicing fitness (ln), please, for this sequence: AACGAGCAAUAUUACGUUCA
Result: -2.32
